These measurements were taken from patent US7026516B2.

- measured.target: serotonin transporter (Macaca mulatta, UniProt Q9MYX0)
- Construct: Each caudate-putamen was homogenized and used separately for dopamine and serotonin transporter assays; from tissue; host or cells: caudate-putamen membranes of adult cynomolgus or rhesus monkey brain
- Sequence (Q9MYX0 whole entry): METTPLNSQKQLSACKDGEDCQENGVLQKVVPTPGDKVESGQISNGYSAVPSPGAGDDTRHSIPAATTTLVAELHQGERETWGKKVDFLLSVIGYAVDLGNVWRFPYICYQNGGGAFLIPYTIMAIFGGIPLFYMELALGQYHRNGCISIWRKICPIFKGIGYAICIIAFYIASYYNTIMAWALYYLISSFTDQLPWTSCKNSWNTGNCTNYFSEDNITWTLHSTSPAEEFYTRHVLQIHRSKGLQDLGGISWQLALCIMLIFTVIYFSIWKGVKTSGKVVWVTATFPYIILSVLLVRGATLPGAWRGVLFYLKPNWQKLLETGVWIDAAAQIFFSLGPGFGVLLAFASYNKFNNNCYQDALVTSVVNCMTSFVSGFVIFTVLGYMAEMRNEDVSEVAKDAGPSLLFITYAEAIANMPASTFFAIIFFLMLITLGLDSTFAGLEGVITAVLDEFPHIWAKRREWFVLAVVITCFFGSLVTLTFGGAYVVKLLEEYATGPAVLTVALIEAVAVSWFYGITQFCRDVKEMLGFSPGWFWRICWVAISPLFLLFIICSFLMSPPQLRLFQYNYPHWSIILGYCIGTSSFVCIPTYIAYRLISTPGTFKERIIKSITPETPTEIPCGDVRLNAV
- protocol.notes: biochemical
- Type: binding
- condition.notes: Table 1; [3H]citalopram; monkey caudate-putamen; mean of 3 or more experiments; read-out: SERT IC50
pIC50: −log10 of the molar value.
Entries and their pIC50
quantity.measured: pIC50

> print(dat)
                                   molecule                           measured.target  quantity.measured  limit.operator  value.measured
1  COC(=O)[C@H](c1ccc(Cl)c(Cl)c1)[C@H]1CCCCO1  serotonin transporter (Macaca mulatta, UniProt Q9MYX0)              pIC50               <            5.00
2  COC(=O)[C@@H](c1ccc(Cl)c(Cl)c1)[C@@H]1CCCCO1  serotonin transporter (Macaca mulatta, UniProt Q9MYX0)              pIC50               =            5.78
3  N#CC(c1ccc(Cl)c(Cl)c1)C1CCCCC1 (stereo not drawn) [Compound 8, α-cyclohexyl-3,4-dichlorobenzylcyanide]  serotonin transporter (Macaca mulatta, UniProt Q9MYX0)              pIC50               =            5.10
4  COC(=O)[C@H](c1ccc(Cl)c(Cl)c1)[C@@H]1CCCCO1  serotonin transporter (Macaca mulatta, UniProt Q9MYX0)              pIC50               <            5.00
5  COC(=O)[C@@H](c1ccc(Cl)c(Cl)c1)[C@H]1CCCCO1  serotonin transporter (Macaca mulatta, UniProt Q9MYX0)              pIC50               <            5.00
6  COC(=O)C(c1ccc2ccccc2c1)C1CCCCO1 (stereo not drawn) [Naphthyl mixture]  serotonin transporter (Macaca mulatta, UniProt Q9MYX0)              pIC50               =            5.30
